- test.method.notes: protein stability index of a GFP-peptide fusion (yeast GPS) (PSI 1-4); higher = more stable; sorted into four equal gates, so the index is relative within each strain
- condition.description: san1∆
property: protein stability index
Give bare numbers.

{"columns": ["sequence.data", "assay.result"],
 "data": [
  ["SQESINQKLALVIKSGK [RPL30]", 2.31],
  ["PEQGEEPMKQLNATKIS [YAR002W/NUP60]", 2.5],
  ["KKIMDETPSRLLLSPDQ [ITC1]", 3.21],
  ["AVDLEHHDYRSYYGIVC [RRP6]", 2.37],
  ["IRDPLTQTGLLQDLEEA [RPC82]", 3.15]
]}

State recorded protein stability index for all listed sequences.
1. NSNKQAVAILADDEKSD [BRR2]
2. NVLCVNIKSNDFSIRKT [ECM29]
3. SRSTEKKNDMNTSAKNK [SIR4]
4. DKILQLNDRFQTLSSHL [PGD1]
5. RLLAKDAMIAQRSKKIQ [DIS3]
6. KYLSDIMELPGVYSDDE [SRP68]
7. IEAIDEYNKPNSEKFVF [ISW2]
8. GPNNFIWPAEDALRRGM [MED4]

1: 3.03; 2: 2.58; 3: 2.9; 4: 2.55; 5: 1.41; 6: 3.59; 7: 3.01; 8: 3.03

State recorded protein stability index for all listed sequences.
1. PIGEAGDFGGWFCPCHG [RIP1]
2. KYDRKVPSPTGEYVKEP [RPO21]

1. 2.87
2. 2.81

State recorded protein stability index for all listed sequences.
1. MMVNNQTMQLIKNVQDL [SRB6]
2. TDKIGRSVPAPGKGILT [FAS2]

1.64
2.79

State recorded protein stability index for all listed sequences.
1. QDLILDLKKKLNSLKDE [SMC4]
2. VILKQILQILDQDELVQ [SWP82]

1: 2.01; 2: 2.57

Give the reported value of protein stability index for this record: FGIYILTQGINGKEVPL [MED1]
2.43

----------
- test.method.notes: protein stability index of a GFP-peptide fusion (yeast GPS) (PSI 1-4); higher = more stable; sorted into four equal gates, so the index is relative within each strain
- condition.description: ubr1∆
Exercise: for every item that follows, state its recorded protein stability index.
Answers are plain numbers.

{"columns": ["sequence.data", "protein stability index"],
 "data": [
  ["KETQQYELEFDTPTSGK [BRR2]", 3.08],
  ["LIENGASVRIKDKFNQI [NAS6]", 3.27],
  ["EGHLAEIRAKEYKTSSD [SRB2]", 3.26],
  ["LPLISTDVLEISKQRTF [YMR129W/POM152]", 2.51],
  ["EKWISSKNSKLSIICVG [SIR3]", 1.23],
  ["QAQAQVYAQQSTVQTPI [PGD1]", 2.95],
  ["EVGMKVQSGQIYINKSV [RET1]", 3.08],
  ["NPHDGVNSIALFVGTDR [RPN14]", 2.99]
]}

State recorded protein stability index for all listed sequences.
1. SKNCYLSEATESDLYKL [RPB2]
2. KSVYETPKITAAEKSFK [SEC65]
3. LPDPKPLPLDLNVQVWH [ITC1]
4. ASLNALKESIKNSTSSM [RPN1]
5. QFTKVIDEPIKSIMDGI [FAS1]
6. ARKGLTPSQIGVLLRDA [RPS13]

2.75
1.53
2.55
3.16
1.49
2.32

State recorded protein stability index for all listed sequences.
1. MLLVDIIPSRMGEAQTG [REC8]
2. PQYINYSSIPSLQDSII [SSN2]
3. SSNIVNENDSQAIITER [YIL149C/MLP2]

1: 2.17; 2: 3.16; 3: 2.86
